Source of measurements: PubChem BioAssay (Tox21)

- assay-name: qHTS assay to identify small molecule antagonists of the peroxisome proliferator-activated receptor gamma (PPARg) signaling pathway - cell viability counter screen (AID 743194); further: nearly all actives have a fitted effect of over 55% in size
- test-conditions: PPARg-bla HEK293H viability, CellTiter-Glo luminescence, 17 h, co-treated with 50 nM rosiglitazone; series mostly up to 62.6 µM
- Source text: U.S. Tox21 Program National Center for Advancing Translational Sciences [NCATS] NIH Chemical Genomics Center [NCGC] U.S. Environmental Protection Agency [EPA] National Institutes of Environmental Health Sciences [NIEHS] National Toxicology Program [NTP] U.S. Food and Drug Administration [FDA] […]
Records with an inconclusive call do not appear. The source made the active and inactive calls. The call rests on the fitted dose curve; in most records, active means well fitted cell-killing curve with a large enough effect in the repeat runs; inconclusive means weak or mixed curves, or effect the other way; inactive means no such curve, though single readings can be large or run the other way.
Answer with one of the outcomes given here: active, inactive

Worked cases, answers included:
compound	group-label
CCCCCCCCCCCCCCCCCl	inactive
O=C(O)Cn1cnnn1	inactive
CNCCC(Oc1ccc(C(F)(F)F)cc1)c1ccccc1 (configuration not stated)	active
CC(=O)CC(=O)Nc1ccc2[nH]c(=O)[nH]c2c1	inactive
c1cc(C(c2ccc(OCC3CO3)cc2)C(c2ccc(OCC3CO3)cc2)c2ccc(OCC3CO3)cc2)ccc1OCC1CO1 (configuration not stated)	inactive

Query: What is the recorded call for this compound in the test? CCC(C)(Oc1ccc(C2(c3ccc(OC(C)(CC)C(=O)O)cc3)CCCCC2)cc1)C(=O)O (configuration not stated)
Reply: inactive

Query: Here is the next compound: COc1ccc(Cc2cnc(N)nc2N)cc1OC
Reply: inactive

---

- target-of-assay: Nuclear receptor subfamily 1 group I member 3 (Homo sapiens)
- assay-name: qHTS assay to identify small molecule agonists of the constitutive androstane receptor (CAR) signaling pathway (AID 1224839); further: nearly all actives have a fitted effect of over 15% in size;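 on activation: HepG2 cells stably carrying human CAR and a CYP2B6 luciferase reporter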
- test-conditions: HepG2 hCAR CYP2B6-luciferase, agonist mode, 24 h; series mostly up to 92.4 µM
Inconclusive results are not listed. Activity calls are given as the source filed them. Calls follow the shape of the dose curve; as a rule, active = well fitted activation curve with a large enough effect in the repeat runs; inconclusive = weak or mixed curves; inactive = no such curve, though single readings can be large or run the other way.
Answer with one of the outcomes given here: Yes (active), No (inactive)

molecular-string	group-label
CC(C)(O)CCC(C)(C)O	No
NC(N)=NC(=O)Cc1c(Cl)cccc1Cl	No
CC[C@H]1CN2CCc3cc(OC)c(OC)cc3[C@@H]2C[C@@H]1C[C@H]1NCCc2cc(OC)c(OC)cc21	No

Query: What is the recorded call for this compound in the test? OCC(CO)N[C@H]1C[C@](O)(CO)[C@@H](O)[C@H](O)[C@H]1O
Reply: No

Query: Here is the next compound: O=C(Cl)c1cccc(C(=O)Cl)c1
Reply: No

Query: Here is the next compound: CCc1ccc(C(c2ccc(CC)cc2)C(Cl)Cl)cc1
Reply: Yes

Query: Here is the next compound: O=C1CC2(CCCC2)CC(=O)N1CCCCN1CCN(c2ncccn2)CC1
Reply: No

---

- target-of-assay: Estrogen receptor (Homo sapiens)
- assay-name: qHTS assay to identify small molecule agonists of the estrogen receptor alpha (ER-alpha) signaling pathway using the BG1 cell line (AID 743079); further: nearly all actives have a fitted effect of over 20% in size
- test-conditions: BG1Luc4E2 cells, ERE-luciferase agonist, 22 h; series mostly up to 70.3 µM
Records with an inconclusive call do not appear. Activity calls are given as the source filed them. Calls come from the whole dose curve; as a rule, active = well fitted activation curve with a large enough effect in the repeat runs; inconclusive = weak or mixed curves, or effect the other way; inactive = no such curve, though single readings can be large or run the other way.
Answer with one of the outcomes given here: active, inactive

Worked cases, answers included:
molecular-string	group-label
CC(=O)OCCOCCOCCOC(C)=O	inactive
O=C1NCC2(CCN(CCc3ccccc3)CC2)O1	active
Cc1scc2c1N(C(=O)CN1CCN(C)CC1)c1ccccc1NC2=O	inactive

Query: What is the recorded call for this molecule in the test? CC(=O)CC(=O)Nc1ccc2[nH]c(=O)[nH]c2c1
Reply: inactive

Query: Here is the next molecule: CC(=O)O[C@]1(C(C)=O)CC[C@H]2[C@@H]3C[C@H](C)C4=CC(=O)CC[C@]4(C)[C@H]3CC[C@@]21C
Reply: inactive
